Test system: KM12 colon
Assay: NCI tumour cell line growth inhibition, 48 h; in the data active means GI50 below about 0.43 µM; inactive means the rest
One label from this list, please: active, inactive

Example entries and their recorded answers appear below.
>  <Compound>
COc1ncnc2c(-c3ccco3)cn(COCc3ccccc3)c12

>  <Target system>
KM12 colon

>  <Qualitative label>
inactive

$$$$
>  <Compound>
CCOc1cccnc1/C=N/NC(N)=S

>  <Target system>
KM12 colon

>  <Qualitative label>
inactive

$$$$
>  <Compound>
O=[N+]([O-])c1cccc(-c2ncc(-c3ccc(Cl)cc3Cl)[nH]2)c1

>  <Target system>
KM12 colon

>  <Qualitative label>
inactive

$$$$
>  <Compound>
COc1ccc(CC2C(=O)NC(C)C(=O)N(C)C3Cc4ccc(cc4)Oc4cc(ccc4O)CC(C(=O)NC(C)C(=O)NC(C)C(=O)N2C)N(C)C3=O)cc1 (stereo not given)

>  <Target system>
KM12 colon

>  <Qualitative label>
active

$$$$

Then this compound:
Look up the recorded call for O=c1[nH]c2cc(O)ccc2n2cc3c(F)cccc3c12 in this test.
inactive

---

Tested on: 786-0 renal
Assay: NCI tumour cell line growth inhibition, 48 h
Output Y for TGI not less than 20 µM; output N otherwise.

>  <Compound>
C[C@]12CC[C@@H]3c4ccc(O)cc4CC[C@H]3[C@@H]1CC[C@@H]2NS(=O)(=O)c1ccc(-c2ccccc2)cc1

>  <Qualitative label>
Y

$$$$

Entry CSC1(SC)CCCCCCCCCCC1 : is its TGI no less than 20 µM?
Y

Does C[C@@H](C[C@@H](O)[C@H](O)C(C)(C)O)[C@H]1CC=C2[C@]3(C)[C@H](O)C[C@H]4C(C)(C)[C@H](O)CC[C@]4(C)[C@H]3CC[C@@]21C have a reported TGI of at least 20 µM?
Y

Would you say C/C(=N\NC(=S)N1CCC(C2CCN(C(=S)N/N=C(\C)c3ccccn3)CC2)CC1)c1ccccn1 shows TGI at minimum 20 µM?
Y

---

Listing of entries alongside the reported TGI.
Tested on: K-562 leukemia
Assay: NCI tumour cell line growth inhibition, 48 h

>  <Compound>
CSc1nc2c(ncn2C2OCC(O)C(O)C2O)c(=O)[nH]1 (stereo not drawn)

>  <Reported measurement>
> 100 µM

$$$$
>  <Compound>
C[C@@H](C[C@@H](O)[C@H](O)C(C)(C)O)[C@H]1CC=C2[C@]3(C)[C@H](O)C[C@H]4C(C)(C)[C@H](O)CC[C@]4(C)[C@H]3CC[C@@]21C

>  <Reported measurement>
41.7 µM

$$$$

# input for lookup
Dear colleague, I am looking for the recorded TGI of the following compound: CN(C)CCn1c(=O)c2ccc(NCCNCCO)c3c(=O)c4cc(O)ccc4n(c1=O)c23
> 30.5 µM

---

Tested on: HT29 colon
Assay: NCI tumour cell line growth inhibition, 48 h; in the data active means GI50 below about 0.43 µM; inactive means the rest
Valid outcomes are listed here; reply with one: class 1 for active, class 0 for inactive

Reference set (8 entries):
>  <Compound>
C=CC[PH+](c1ccccc1)c1ccccc1.C=CC[PH+](c1ccccc1)c1ccccc1.[Cl][Pt][Cl]

>  <Qualitative label>
class 0

$$$$
>  <Compound>
Cc1ccc(OCCCCCCNCCO)c(C)c1

>  <Qualitative label>
class 0

$$$$
>  <Compound>
C[C@H](NC(=O)CCC(F)(F)F)C(=O)N[C@@H]1C(=O)N(CCO)c2ncccc2-c2ccccc21

>  <Qualitative label>
class 0

$$$$
>  <Compound>
COc1ccc(N(Cc2cc(OC)c(OC)c(OC)c2)C2OC(=O)c3ccccc32)cc1 (configuration not stated)

>  <Qualitative label>
class 1

$$$$
>  <Compound>
C#Cc1cccc(Nc2ncnc3ccc(-c4cncc(NS(C)(=O)=O)c4)cc23)c1

>  <Qualitative label>
class 0

$$$$
>  <Compound>
N#Cc1ccc(N2Cc3cc(Cl)ccc3OC3=C2C(=O)N(Cc2ccccc2)C3=O)cc1

>  <Qualitative label>
class 0

$$$$
>  <Compound>
COC(=O)Nc1nc2ccc(Sc3ccc(NC(=O)Nc4cc(C(F)(F)F)ccc4F)cc3)cc2[nH]1

>  <Qualitative label>
class 0

$$$$
>  <Compound>
Cc1csc(Nc2nc(-c3cccc(Cl)c3)nc(C(Cl)(Cl)Cl)n2)n1

>  <Qualitative label>
class 0

$$$$

For this compound, state the assay outcome: O=C(Nc1ccccc1)Nc1ccccc1CNc1nc(Nc2ccc(OCCN3CCCC3)cc2)ncc1Cl
class 0

Which outcome was assigned to CC(=O)N[C@@H]1CCC[C@H](C(=O)Nc2cc(-c3cnn4c3CC(C)(C)C4)c(Cl)cn2)C1 in this test?
class 1

Dear all, I need the recorded test outcome for C=C(CC1(CC(=C)c2ccc(C(=O)O)cc2)C(=O)N(C)C(=O)N(C)C1=O)c1ccc(C(=O)O)cc1 , thank you.
class 0

GET /call?item= COc1ccc(-n2nc(C)c3c2N(C)C2(C)C[C@@H]4C3(C)[C@@H]3CC4(C2)N(C)c2c(c(C)nn2-c2ccc(OC)cc2)[C@H]3C)cc1 (some centres not stated) returns the recorded outcome of this test.
class 0

For CC[C@@]1(OC(=O)CN(C)C)C(=O)OCc2c1cc1n(c2=O)Cc2cc3ccccc3nc2-1 , what call appears in the results of this test?
class 1

Call for entry CCCCCCCCCCCCNC(=O)[C@H]1CSC(c2ccc(OC)c(F)c2)N1 (some centres not stated) :
class 0
